# Tested on: M-phase inducer phosphatase 1 (Homo sapiens, UniProt P30304)
# Sequence (P30304 whole entry): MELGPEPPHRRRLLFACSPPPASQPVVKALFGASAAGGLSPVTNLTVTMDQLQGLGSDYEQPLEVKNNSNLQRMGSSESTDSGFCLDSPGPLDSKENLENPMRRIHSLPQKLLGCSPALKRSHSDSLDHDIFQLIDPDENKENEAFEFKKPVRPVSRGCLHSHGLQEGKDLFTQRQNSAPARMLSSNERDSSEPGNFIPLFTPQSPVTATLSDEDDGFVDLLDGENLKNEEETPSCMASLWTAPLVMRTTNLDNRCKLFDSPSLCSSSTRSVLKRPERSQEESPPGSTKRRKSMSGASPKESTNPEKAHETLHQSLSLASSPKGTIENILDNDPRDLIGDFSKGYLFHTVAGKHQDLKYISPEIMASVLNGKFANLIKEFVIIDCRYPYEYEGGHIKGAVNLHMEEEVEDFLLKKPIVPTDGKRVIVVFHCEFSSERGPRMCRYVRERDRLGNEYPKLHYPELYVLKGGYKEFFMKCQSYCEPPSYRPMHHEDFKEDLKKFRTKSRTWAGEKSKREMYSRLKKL
Property name: IC50 (µM)

Recorded results for 2 molecules are shown here.
{"columns": ["Mol", "Property name", "Data value"],
 "data": [
  ["CC(=C/c1ccccc1)/C=C1\\SC(Nc2cc(Cl)cc(Cl)c2)=NC1=O", "IC50", 5.1],
  ["C=Cn1c(SCC(=O)c2ccc(Cl)cc2)nnc1-c1ccco1", "IC50", 14.5]
]}

I. CC(=C/c1ccccc1)/C=C1\SC(Nc2ccc(Br)cc2)=NC1=O
II. COc1ccc(-c2nnc(SCC(=O)c3ccc(O)c(O)c3)n2-c2ccccc2)cc1
III. O=C1N=C(Nc2ccc(F)cc2)S/C1=C\c1cccs1
Q. Sort entries by IC50 from minimum to maximum value. Record the ranking as a list of labels in the requested order.
A. II, I, III
(II: 6 µM, I: 17.3 µM, III: 30.7 µM)
